System: Enterobacter spp 0503037 (Wild-type)
EXPERIMENTAL PROTOCOL: Growth and enzymatic activity on ChromID CPS-based selective media
Type: cell-based
MEASUREMENT SETUP: 18 h at 37° C.; cefpodoxime 4 mg/l (T), cefepime 0.25 mg/l (A), cefamandole 3 mg/l (B), cefuroxime 3 mg/l (C), each with 300 mg/l cloxacillin
READOUT LABEL: Enz act.

| COMPOUND | ASSAY VALUE |
| --- | --- |
| CO/N=C(\C(=O)N[C@@H]1C(=O)N2C(C(=O)O)=C(COC(N)=O)CS[C@H]12)c1ccco1 | ++ |
| CO/N=C(\C(=O)N[C@@H]1C(=O)N2C(C(=O)[O-])=C(C[N+]3(C)CCCC3)CS[C@H]12)c1csc(N)n1 [Cefepime, cefepime] | − |
| Cn1nnnc1SCC1=C(C(=O)O)N2C(=O)[C@@H](NC(=O)[C@H](O)c3ccccc3)[C@H]2SC1 | ++ |
| COCC1=C(C(=O)O)N2C(=O)[C@@H](NC(=O)/C(=N\OC)c3csc(N)n3)[C@H]2SC1 | ++ |

----------
Test system: Morganella morganii 9904104 (HL case)
EXPERIMENTAL PROTOCOL: Growth and enzymatic activity on ChromID CPS-based selective media
Assay type: cell-based
MEASUREMENT SETUP: 24 h at 37° C.; cefpodoxime 4 mg/l (T), cefepime 0.25 mg/l (A), cefamandole 3 mg/l (B), cefuroxime 3 mg/l (C), each with 300 mg/l cloxacillin

| MOLECULE | Growth |
| --- | --- |
| Cn1nnnc1SCC1=C(C(=O)O)N2C(=O)[C@@H](NC(=O)[C@H](O)c3ccccc3)[C@H]2SC1 | − |
| CO/N=C(\C(=O)N[C@@H]1C(=O)N2C(C(=O)O)=C(COC(N)=O)CS[C@H]12)c1ccco1 | − |
| COCC1=C(C(=O)O)N2C(=O)[C@@H](NC(=O)/C(=N\OC)c3csc(N)n3)[C@H]2SC1 | − |
| CO/N=C(\C(=O)N[C@@H]1C(=O)N2C(C(=O)[O-])=C(C[N+]3(C)CCCC3)CS[C@H]12)c1csc(N)n1 [Cefepime, cefepime] | − |
